Target: human Na,K-ATPase α2β1FXYD1 (Homo sapiens)
Type: biochemical
Details: Example 2, vanadate titration; read-out: apparent vanadate affinity α2β1
assay_endpoint: pKi
Numbers only, as −log10 of the molar value.

Any idea what pKi was measured for [O]=[V]([OH])([OH])[OH] [Vanadate, vanadate, reference compound] ?
5.46

###

What log10 Ki was measured for each of the following?
Molecular target: human Na,K-ATPase α2β1FXYD1 (Homo sapiens, UniProt P50993)
Assay type: biochemical
Settings: read-out: Ki in nM ± SEM α2β1
In our notation, the value equals log10 of Ki in nM.

Below, each entry is followed by its recorded log10 Ki result.
CC1CN(C(C)C)CCC(O[C@@H]2[C@H](C)O[C@@H](O[C@@H]3[C@H](C)O[C@@H](O[C@H]4CC[C@@]5(C)C(CCC6C5C[C@H](O)[C@]5(C)[C@@H](C7=CC(=O)OC7)CC[C@]65O)C4)C[C@@H]3O)C[C@@H]2O)O1 (some centres unmarked) : 1.46
CC1CN(Cc2ccccc2)CCC(O[C@@H]2[C@H](C)O[C@@H](O[C@@H]3[C@H](C)O[C@@H](O[C@H]4CC[C@@]5(C)C(CCC6C5C[C@H](O)[C@]5(C)[C@@H](C7=CC(=O)OC7)CC[C@]65O)C4)C[C@@H]3O)C[C@@H]2O)O1 (some centres unmarked) : 1.00
CC1CN(CS(C)(=O)=O)CCC(O[C@@H]2C(C)O[C@@H](OC3C(C)OC(O[C@H]4CC[C@@]5(C)C(CCC6C5CC(O)[C@]5(C)[C@@H](C7=CC(=O)OC7)CC[C@]65O)C4)C[C@@H]3O)C[C@@H]2O)O1 (stereo in doubt) : 2.14
CC1CN(CCS(C)(=O)=O)CCC(O[C@@H]2C(C)O[C@@H](OC3C(C)OC(O[C@H]4CC[C@@]5(C)C(CCC6C5CC(O)[C@]5(C)[C@@H](C7=CC(=O)OC7)CC[C@]65O)C4)C[C@@H]3O)C[C@@H]2O)O1 (stereo in doubt) : 1.69

Okay, next one:
May I ask what log10 Ki has been recorded for CC1CN(C)CCC(O[C@@H]2[C@H](C)O[C@@H](O[C@@H]3[C@H](C)O[C@@H](O[C@H]4CC[C@@]5(C)C(CCC6C5C[C@H](O)[C@]5(C)[C@@H](C7=CC(=O)OC7)CC[C@]65O)C4)C[C@@H]3O)C[C@@H]2O)O1 (some centres unmarked) ?
1.18

###

Assign Ki to each entry below.
Target: human Na,K-ATPase α2β1FXYD1 (Homo sapiens)
Format: biochemical
Conditions: read-out: Ki in nM ± SEM α2β1
Give bare numbers, in nM.

Worked examples, 3 compounds total:
CC1CN(C2CCC2)CCC(O[C@@H]2[C@H](C)O[C@@H](O[C@@H]3[C@H](C)O[C@@H](O[C@H]4CC[C@@]5(C)C(CCC6C5C[C@H](O)[C@]5(C)[C@@H](C7=CC(=O)OC7)CC[C@]65O)C4)C[C@@H]3O)C[C@@H]2O)O1 (stereo partly shown) : 8
CC1CN(CCC2CC2)CCC(O[C@@H]2[C@H](C)O[C@@H](O[C@@H]3[C@H](C)O[C@@H](O[C@H]4CC[C@@]5(C)C(CCC6C5C[C@H](O)[C@]5(C)[C@@H](C7=CC(=O)OC7)CC[C@]65O)C4)C[C@@H]3O)C[C@@H]2O)O1 (stereo partly shown) : 14.3
CC1CN(C[Si](C)(C)C)CCC(OC2C(O)CC(OC3C(O)CC(OC4CCC5(C)C(CCC6C5CC(O)C5(C)C(C7=CC(=O)OC7)CCC65O)C4)OC3C)OC2C)O1 (stereo not shown) : 24.3

Let us move to another entry and its Ki.
Tell me reported Ki for CCN1CCC(O[C@@H]2[C@H](C)O[C@@H](O[C@@H]3[C@H](C)O[C@@H](O[C@H]4CC[C@@]5(C)C(CCC6C5C[C@H](O)[C@]5(C)[C@@H](C7=CC(=O)OC7)CC[C@]65O)C4)C[C@@H]3O)C[C@@H]2O)OC(C)C1 (stereo partly shown) , tested with human Na,K-ATPase α2β1FXYD1 (Homo sapiens).
23.2
